Listed next: entries and their corresponding Growth Rate.
Tested on: HEK-293T
methodDescription: Incucyte cell viability with HEK293T; also: unitless GR value; below 1 slowed growth and below 0 cell loss
Assay type: toxicity, cell-based
runParameters: human, 12 h, 10 µM, compound concentration 10 uM, replicate number 2
Give your answer as a number; write no unit.

compound: Oc1cc2c(cc1O)CN(C(=S)NCCc1ccc(Cl)cc1)CCC2 [CAPSAZEPINE]
Growth Rate: 0.11

compound: COCCN1CCN(CCn2ccc(Nc3ncc4c(n3)-c3c(nn(C)c3-c3ccccc3)C[C@H]4C)n2)CC1
Growth Rate: -0.33

compound: CC(C)C[C@H](NC(=O)c1cc2ccccc2s1)C(=O)N1CCN(C(=O)[C@H](CO)NS(=O)(=O)c2ccc(Cl)cc2Cl)CC1
Growth Rate: 0.27

Okay, now this compound:
INPUT: Field: Growth Rate (HEK-293T). Entry: Cc1c(C(=O)NCCCN(C)C)sc2ncnc(Nc3ccc(F)cc3OC(C)CF)c12 (centres undefined)
OUTPUT: 0.14

* * *

Tested on: U2OS
methodDescription: Incucyte cell viability with U2OS; also: unitless GR value; below 1 slowed growth and below 0 cell loss
Assay type: toxicity, cell-based
runParameters: human, 0 h, 10 µM, compound concentration 10 uM, replicate number 2
Assign classes using reported Growth Rate values and the ranges low interval = under -0.03, middle interval = from -0.03 up to 0.7, high interval = 0.7 and over, please.

Here's what some known entries look like.
compound: C[C@@H](c1ccc(F)cc1)n1nnc2cnc3ccc(-c4ccc5ocnc5c4)cc3c21
discreteLabel: middle interval

compound: O=C1CSC(=O)N1C(CCc1ccncc1)COc1ccc(-c2cccc([N+](=O)[O-])c2)cc1 (stereo not drawn)
discreteLabel: low interval

compound: C=CC(=O)Nc1cc(Nc2nccc(-n3cc(CN(C)C)c(-c4ccccc4)n3)n2)c(OC)cc1N1CCOCC1 [LAZERTINIB]
discreteLabel: low interval

compound: CSc1ccc(C(=O)/C=C/c2cc(C)c(OC(C)(C)C(=O)O)c(C)c2)cc1 [ELAFIBRANOR]
discreteLabel: high interval

compound: Cc1c(NC(=O)c2cccn(-c3ccc(F)cc3)c2=O)ccc(Oc2ccnc(NC(=O)C3CC3)c2)c1C
discreteLabel: low interval

INPUT: Note: place this compound into its band. Item: Cc1ccc2c(N)c(C(=O)NC3CCc4cc(N5CC6CCC(C5)N6)ccc4C3)sc2n1.O=CO (stereo not drawn)
OUTPUT: middle interval

INPUT: Cool, now N#C/C(=C\c1ccc(O)c(O)c1)C(=O)OCCc1cccs1
OUTPUT: middle interval

INPUT: Cool, now O=C(O)c1ccc(CN2C[C@@H]3C[C@H]2CN3Cc2ccc(Oc3ccc(-c4ncco4)cc3)cc2)cc1 [ACEBILUSTAT]
OUTPUT: middle interval

INPUT: Cool, now CC(CNS(=O)(=O)C(C)C)c1ccc(-c2ccc(C#N)cc2)cc1 (stereo not drawn)
OUTPUT: middle interval

INPUT: Cool, now CC(C=CC1=C(C)CCCC1(C)C)=CC=CC(C)=CC(=O)O
OUTPUT: high interval

INPUT: Cool, now CCC(=O)O[C@]1(C(=O)CCl)[C@@H](C)C[C@H]2[C@@H]3CCC4=CC(=O)C=C[C@]4(C)[C@@]3(F)[C@@H](O)C[C@@]21C [CLOBETASOL PROPIONATE]
OUTPUT: low interval

INPUT: Cool, now CN[C@@H]1CC[C@@H](c2ccc(Cl)c(Cl)c2)c2ccccc21.Cl
OUTPUT: middle interval

* * *

Test system: U2OS
methodDescription: Incucyte cell viability with U2OS; also: unitless GR value; below 1 slowed growth and below 0 cell loss
Type: toxicity, cell-based
runParameters: human, 0 h, 10 µM, compound concentration 10 uM, replicate number 1
Listed next: entries and their corresponding Growth Rate.
Give your answer as a number; write no unit.

compound: Cl.Cl.c1ccc2c(-c3cnn4cc(-c5ccc(N6CCNCC6)cc5)cnc34)ccnc2c1
readoutLabel: Growth Rate
numericReadout: -0.92
--
compound: CNC(=O)c1cccc(-c2ccc3c(N4CCOC[C@@H]4C)nc(N4CCOC[C@@H]4C)nc3n2)c1
readoutLabel: Growth Rate
numericReadout: 0.02
--
compound: Cl.c1ccc2c(c1)CCC[C@H]2Nc1nc2ccccc2[nH]1
readoutLabel: Growth Rate
numericReadout: 0.01
--
compound: CN(C)c1cc2c(Nc3ccc4c(cnn4Cc4ccccc4)c3)ncnc2cn1 [GW282974X]
readoutLabel: Growth Rate
numericReadout: -0.05
--
compound: CN(C)C(=O)Cn1cc(-c2ccc(-c3cncc4ccccc34)cc2)cn1
readoutLabel: Growth Rate
numericReadout: 0.61

INPUT: Record request: Growth Rate value, item CN(C)C/C=C/C(=O)Nc1ccc(C(=O)Nc2cccc(Nc3ncc(Cl)c(-c4c[nH]c5ccccc45)n3)c2)cc1
OUTPUT: -1

INPUT: Cool, now CCC(C(=O)Nc1ccc(-c2cc3ccccc3s2)c(C(N)=O)c1)c1nccs1 (stereo not given)
OUTPUT: 0.65

INPUT: Cool, now COc1ccc(CSc2nnc(-c3ccc4ncsc4c3)o2)cc1C(F)(F)F
OUTPUT: -0.97

INPUT: Cool, now COC1(C#Cc2ccc(Cl)c(-c3ncc4c(n3)-c3sc(NC(C)=O)nc3CC4)c2)CCN(C)CC1
OUTPUT: 0.64

INPUT: Cool, now CC1(C)CCC[C@]2(C)[C@@H](C=O)C(C=O)=CC[C@@H]12
OUTPUT: 0.45

INPUT: Cool, now Nc1n[nH]c2nc(-c3ccc(NS(=O)(=O)c4cccc(Cl)c4Cl)cc3)cnc12
OUTPUT: 0.36

INPUT: Cool, now CCN(CC)C/C=C/C(=O)Nc1cc2c(Nc3ccc(F)c(Cl)c3)ncnc2cc1OCC1CC1
OUTPUT: -0.62

INPUT: Cool, now C/C(=C\C(=O)Nc1ccccc1C(=O)[O-])c1ccc2ccccc2c1.[Na+]
OUTPUT: 0.38

INPUT: Cool, now Cc1nnc2n1-c1sc(CCC(=O)N3CCOCC3)cc1C(c1ccccc1Cl)=NC2
OUTPUT: 0.87

INPUT: Cool, now CN(C)C/C=C/C(=O)Nc1cccc(C(=O)Nc2ccc(Nc3nccc(-c4cccnc4)n3)cc2)c1
OUTPUT: -0.34

INPUT: Cool, now CN1C(=O)Cc2ccc(-c3ccc(C[C@@H](C#N)NC(=O)[C@@H]4N[C@H]5CC[C@@H]4C5)c(F)c3)cc21
OUTPUT: 0.98

INPUT: Cool, now CC(C)c1nc2c(c3c1[C@H](c1ccc(C(F)(F)F)cc1)OC31CCOCC1)[C@H](O)CC(C)(C)C2
OUTPUT: -0.17

* * *

Test system: HEK-293T
methodDescription: Incucyte cell viability with HEK293T; also: unitless GR value; below 1 slowed growth and below 0 cell loss
Type: toxicity, cell-based
runParameters: human, 6 h, 10 µM, compound concentration 10 uM, replicate number 2
Assign classes using reported Growth Rate values and the ranges low class (below -0.4), middle class (-0.4 to below 0.3), high class (0.3 or more), please.

Here's what some known entries look like.
compound: COC(=O)c1ccc2c(c1)NC(=O)/C2=C(\Nc1ccc(-c2nccn2C)cc1)c1ccccc1
testedTarget: HEK-293T
discreteLabel: low class

compound: CC(=O)Oc1ccc2c(c1)[C@@]1(C)CCC[C@](C)(C(=O)OC(=O)[C@@]3(C)CCC[C@]4(C)c5cc(OC(C)=O)ccc5CC[C@@H]34)[C@@H]1CC2 [ACETYL PODOCARPIC ACID ANHYDRIDE]
testedTarget: HEK-293T
discreteLabel: high class

compound: O=C(CNCc1cc2ccccc2[nH]1)N[C@H]1CC[C@@H](c2nc3ccccc3[nH]2)CC1
testedTarget: HEK-293T
discreteLabel: middle class

INPUT: Note: place this compound into its band. Item: Cc1cccc(-c2nn3c(c2-c2ccnc4ccc(C(N)=O)cc24)CCC3)n1 [GALUNISERTIB]
OUTPUT: high class

INPUT: Cool, now O=C(Nc1cccc(Nc2nccc(Nc3cccc(C(F)(F)F)c3)n2)c1)C1CC1 [ANILINOPYRIMIDINE1]
OUTPUT: low class

INPUT: Cool, now Fc1ccc(Cl)cc1-c1nc(Nc2ccncc2)c2nccnc2n1
OUTPUT: high class

INPUT: Cool, now CCOC(=O)N1CCC(c2cc(O)n3nc(C)c(-c4ccc(F)cc4)c3n2)CC1
OUTPUT: high class

INPUT: Cool, now CC(C)S(=O)(=O)c1ccccc1Nc1nc(N[C@@H]2CCCN(CCCCCCCNC(=O)COc3cccc4c3C(=O)N(C3CCC(=O)NC3=O)C4=O)C2)ncc1Cl (stereo partly specified)
OUTPUT: low class

INPUT: Cool, now CCn1c(-c2nonc2N)nc2c(C#CC(C)(C)O)ncc(OCC3CCCNC3)c21 (stereo unspecified)
OUTPUT: low class

INPUT: Cool, now CC(=O)N1CCN(c2ccc(OCC3COC(Cn4ccnc4)(c4ccc(Cl)cc4Cl)O3)cc2)CC1 (stereo unspecified) [KETOCONAZOLE]
OUTPUT: middle class

INPUT: Cool, now CCN1C(=O)/C(=C(\NC2CCN(C)CC2)c2ccc3c(c2)OCO3)c2cc(C(C)=O)ccc21
OUTPUT: middle class

INPUT: Cool, now CCOP(=O)(OCC)C(=Cc1cc(C(C)(C)C)c(O)c(C(C)(C)C)c1)P(=O)(OCC)OCC
OUTPUT: middle class
